# Test system: HEK-293T
# test.protocol: Multiplex assay against HEK293T
# Format: toxicity, cell-based
# test.parameters: human, 48 h, 10 µM, compound concentration 10 uM, replicate 1
Measured Population Membrane Permeable-Phenotype (%) of individual entries
Field format: number, assumed %, no unit text.

Query: Read the entry OC1(c2ccc(Cl)cc2)CCN(Cc2c[nH]c3ccccc23)CC1 and write its reported Population Membrane Permeable-Phenotype (%).
Result: 0

Query: Read the entry Cc1c(-c2ccc(O)cc2)n(Cc2ccc(OCCN3CCCCCC3)cc2)c2ccc(O)cc12 and write its reported Population Membrane Permeable-Phenotype (%).
Result: 0

Query: Read the entry CN1CCN(CCOc2cc(OC3CCOCC3)c3c(Nc4c(Cl)ccc5c4OCO5)ncnc3c2)CC1 and write its reported Population Membrane Permeable-Phenotype (%).
Result: 3

Query: Read the entry C[C@@H](NCCCc1cccc(C(F)(F)F)c1)c1cccc2ccccc12.Cl [CINACALCET HYDROCHLORIDE] and write its reported Population Membrane Permeable-Phenotype (%).
Result: 0

---

Measured Population Mitotic Cells (%) of individual entries
# Tested on: U2OS
# test.protocol: Multiplex assay against U2OS
# Format: toxicity, cell-based
# test.parameters: human, 12 h, 10 µM, compound concentration 10 uM, replicate 2

Record excerpt, results attached:
{"compound": "COc1cccc([C@@H](C)NCCCc2ccccc2Cl)c1.Cl [TECALCET HYDROCHLORIDE]", "tested.target": "U2OS", "Population Mitotic Cells (%)": "58%"}
{"compound": "Cc1cc(C)cc(-c2cnc3cc(Cl)c(-c4cccc(O)c4)cc3c2OCCCN)c1", "tested.target": "U2OS", "Population Mitotic Cells (%)": "29%"}
{"compound": "CC[C@H](C)C(=O)O[C@H]1C[C@@H](C)C=C2C=C[C@H](C)[C@H](CC[C@@H]3C[C@@H](O)CC(=O)O3)[C@H]21", "tested.target": "U2OS", "Population Mitotic Cells (%)": "0%"}
{"compound": "OC1(c2ccc(Cl)cc2)CCN(Cc2c[nH]c3ccccc23)CC1", "tested.target": "U2OS", "Population Mitotic Cells (%)": "57%"}
{"compound": "Cn1cc(-c2[nH]c3cc(NC(=O)[C@H](N)C4CCCCC4)cc4c3c2C=NNC4=O)cn1", "tested.target": "U2OS", "Population Mitotic Cells (%)": "30%"}
{"compound": "CNCc1ccc(-c2cc(-c3nc(-c4ccc(S(=O)(=O)C(C)C)cc4)cnc3N)on2)cc1", "tested.target": "U2OS", "Population Mitotic Cells (%)": "88%"}

Query: Read the entry C[C@@]1(C(=O)Nc2ccc(F)nc2)CCCN1c1nc(Nc2cc(C3CC3)n[nH]2)c2cccn2n1 and write its reported Population Mitotic Cells (%).
Result: 66%

Query: Read the entry CN1CCN(c2ccc(OC(F)(F)F)c(Nc3ncc4c(n3)-c3c(c(C(N)=O)nn3CCO)CC4)c2)CC1 and write its reported Population Mitotic Cells (%).
Result: 60%

Query: Read the entry C[C@@H](NCCCc1cccc(C(F)(F)F)c1)c1cccc2ccccc12.Cl [CINACALCET HYDROCHLORIDE] and write its reported Population Mitotic Cells (%).
Result: 11%

---

Measured Growth Rate of individual entries
# Test system: Fibroblast
# test.protocol: Incucyte cell viability with human fibroblast; further: filed as whole numbers so only -1 and 0 and 1 occur
# Assay type: toxicity, cell-based
# test.parameters: 18 h, 10 µM, compound concentration 10 uM, replicate number 2, timepoint 18 hours
The answer should be written as a number, with no unit following it.

{"molecule": "COc1cccc([C@@H](C)NCCCc2ccccc2Cl)c1.Cl [TECALCET HYDROCHLORIDE]", "tested.target": "Fibroblast", "Growth Rate": 0}
{"molecule": "C[C@H](c1ccc(F)cc1)N(Cc1ccc(Cl)c(C(=O)O)c1)C(=O)c1cnc2ccccc2c1 [PF-05257137]", "tested.target": "Fibroblast", "Growth Rate": 1}
{"molecule": "CN(C)C(=O)/C(C#N)=C/c1ccc(-c2nc3cnc4[nH]ccc4c3n2C2CCCCC2)o1", "tested.target": "Fibroblast", "Growth Rate": 1}
{"molecule": "CN(C)C(=O)N[C@H]1CC[C@H](CCN2CCN(c3cccc(Cl)c3Cl)CC2)CC1.Cl [CARIPRAZINE HYDROCHLORIDE]", "tested.target": "Fibroblast", "Growth Rate": 0}
{"molecule": "O=C(c1ccc(F)cc1)N1CC(COc2ccc(Br)cc2)(C(=O)O)C1 [PF-04475866]", "tested.target": "Fibroblast", "Growth Rate": 1}
{"molecule": "Cc1c(C(=O)NC2CCCCC2)sc2nc3ccc(N)cc3n12.Cl", "tested.target": "Fibroblast", "Growth Rate": 1}
{"molecule": "COc1cccc(OC)c1-c1cc(C(=O)NC2(C(=O)O)C3CC4CC(C3)CC2C4)nn1-c1ccc(C(=O)N(C)CCCN(C)C)cc1C(C)C (stereo not drawn)", "tested.target": "Fibroblast", "Growth Rate": 1}

Could you now consider this next molecule?
Query: GET Growth Rate | system: Fibroblast | item: C[C@@H](c1cccc(CN)c1)n1cc(Cl)cc(C(N)=O)c1=N.Cl
Result: 0
